- Test system: 280 human cancer cell lines
- ASSAY: OncoPanel cell proliferation assay (10-day)
- Format: cell-based
- EXPERIMENTAL SETUP: Homo sapiens, 5637, Bladder; read-out: Cell Count IC50
EXPERIMENTAL READOUT: IC50

Please review the entries below; each comes with its answer.
CC(C)=CCC[C@H](CO)[C@@H]1CC[C@@H](C)c2c1cc(C)c(O)c2O [Compound 1, 7,8,18-trihydroxyserrulat-14-ene]
3.38 µM
CC(C)=CCC[C@H](C)[C@@H]1CC[C@@H](C)c2c1cc(C)c(O)c2O [Compound 4, 7,8-dihydroxyserrulat-14-ene]
15.2 µM

Query compound follows.
IN: Dear colleague, please send me the reported IC50 for CC(C)=CCC[C@@H]1C(O)Oc2c(C)cc(O)c3c2[C@H]1CC[C@H]3C (stereo partly drawn) when you can.
OUT: > 30 µM

----------
- System: 280 human cancer cell lines
- ASSAY: OncoPanel cell proliferation assay (10-day)
- Format: cell-based
- EXPERIMENTAL SETUP: Homo sapiens, GA-10, GA-10, Lymphoma; read-out: Cell Count EC50
EXPERIMENTAL READOUT: EC50
Field: value (include unit after the number)

CC(C)=CCC[C@H](C)[C@@H]1CC[C@@H](C)c2c1cc(C)c(O)c2O [Compound 4, 7,8-dihydroxyserrulat-14-ene]
1230 nM
CC(C)=CCC[C@H](CO)[C@@H]1CC[C@@H](C)c2c1cc(C)c(O)c2O [Compound 1, 7,8,18-trihydroxyserrulat-14-ene]
1930 nM

Now look at this one.
IN: Read off the recorded EC50 for CC(C)=CCC[C@@H]1C(O)Oc2c(C)cc(O)c3c2[C@H]1CC[C@H]3C (stereo partly drawn) [Compound 2, 5,18-epoxyserrulat-14-en-8,18-diol]
OUT: 3720 nM

----------
- ASSAY TARGET: PRDM9 (h) (Homo sapiens)
- Sequence (Q9NQV7 whole entry): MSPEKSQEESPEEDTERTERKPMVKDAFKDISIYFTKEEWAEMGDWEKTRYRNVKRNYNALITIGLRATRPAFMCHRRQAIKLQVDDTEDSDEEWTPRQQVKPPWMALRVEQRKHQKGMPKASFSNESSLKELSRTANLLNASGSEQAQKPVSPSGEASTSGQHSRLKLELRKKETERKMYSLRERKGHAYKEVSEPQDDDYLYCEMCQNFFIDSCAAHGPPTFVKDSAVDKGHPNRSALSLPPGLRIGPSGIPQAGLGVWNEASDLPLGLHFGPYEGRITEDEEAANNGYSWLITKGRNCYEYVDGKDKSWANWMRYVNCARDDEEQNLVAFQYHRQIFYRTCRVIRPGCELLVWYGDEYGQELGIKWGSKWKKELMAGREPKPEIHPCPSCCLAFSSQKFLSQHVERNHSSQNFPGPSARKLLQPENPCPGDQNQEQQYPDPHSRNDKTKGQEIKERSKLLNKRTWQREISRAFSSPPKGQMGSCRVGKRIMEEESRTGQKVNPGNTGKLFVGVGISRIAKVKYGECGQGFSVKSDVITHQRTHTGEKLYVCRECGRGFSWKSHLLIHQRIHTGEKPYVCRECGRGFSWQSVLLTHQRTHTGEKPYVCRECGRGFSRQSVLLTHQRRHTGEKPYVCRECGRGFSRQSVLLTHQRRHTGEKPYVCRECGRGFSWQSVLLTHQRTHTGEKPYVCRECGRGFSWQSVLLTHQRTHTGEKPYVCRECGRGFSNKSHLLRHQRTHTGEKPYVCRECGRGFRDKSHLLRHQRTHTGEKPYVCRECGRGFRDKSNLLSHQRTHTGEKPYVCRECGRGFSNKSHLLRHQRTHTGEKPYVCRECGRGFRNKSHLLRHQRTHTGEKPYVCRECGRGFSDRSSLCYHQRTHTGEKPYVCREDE
- ASSAY: Epigenetic enzyme assay, Methyltransferases (MTs)
- Type: biochemical
- EXPERIMENTAL SETUP: read-out: Reference IC50
EXPERIMENTAL READOUT: pIC50
pIC50 here is simply -log10 of the concentration when that concentration is written in mol/L.

IN: Look up and report measured pIC50 for this entry: Nc1ncnc2c1ncn2[C@@H]1O[C@H](CSCC[C@H](N)C(=O)O)[C@@H](O)[C@H]1O [SAH]
OUT: 3.43

----------
The following molecules are shown together with reported % Cell growth values.
- System: 43 cancer cell lines and one normal cell line
- ASSAY: In vitro cell viability assay (intracellular ATP, 72 hour)
- Format: cell-based
- EXPERIMENTAL SETUP: NCI-H460 (Non-Small Cell Lung Cancer); 10 μM
Only the number, expressed in %, is required.

IN: Give me measured % Cell growth, please, for this molecule: CC(C)=CCC[C@H](C)[C@@H]1CC[C@@H](C)c2c1cc(C)c(O)c2O [Compound 4, 7,8-dihydroxyserrulat-14-ene]
OUT: 93

IN: Give the reported % Cell growth for this molecule. CC(C)=CCC[C@@H]1COc2c(C)cc(O)c3c2[C@H]1CC[C@H]3C [Compound 3, 5,18-epoxy-8-hydroxyserrulat-14-ene]
OUT: 100

IN: Return % Cell growth (reported value) for this molecule: CC(C)=CCC[C@@H]1C(O)Oc2c(C)cc(O)c3c2[C@H]1CC[C@H]3C (stereo partly shown) [Compound 2, 5,18-epoxyserrulat-14-en-8,18-diol]
OUT: 88

IN: Input CC(C)=CCC[C@H](CO)[C@@H]1CC[C@@H](C)c2c1cc(C)c(O)c2O [Compound 1, 7,8,18-trihydroxyserrulat-14-ene] , output reported % Cell growth.
OUT: −37

----------
- ASSAY TARGET: USP 16 (h) (Homo sapiens)
- Sequence (Q9Y5T5 whole entry): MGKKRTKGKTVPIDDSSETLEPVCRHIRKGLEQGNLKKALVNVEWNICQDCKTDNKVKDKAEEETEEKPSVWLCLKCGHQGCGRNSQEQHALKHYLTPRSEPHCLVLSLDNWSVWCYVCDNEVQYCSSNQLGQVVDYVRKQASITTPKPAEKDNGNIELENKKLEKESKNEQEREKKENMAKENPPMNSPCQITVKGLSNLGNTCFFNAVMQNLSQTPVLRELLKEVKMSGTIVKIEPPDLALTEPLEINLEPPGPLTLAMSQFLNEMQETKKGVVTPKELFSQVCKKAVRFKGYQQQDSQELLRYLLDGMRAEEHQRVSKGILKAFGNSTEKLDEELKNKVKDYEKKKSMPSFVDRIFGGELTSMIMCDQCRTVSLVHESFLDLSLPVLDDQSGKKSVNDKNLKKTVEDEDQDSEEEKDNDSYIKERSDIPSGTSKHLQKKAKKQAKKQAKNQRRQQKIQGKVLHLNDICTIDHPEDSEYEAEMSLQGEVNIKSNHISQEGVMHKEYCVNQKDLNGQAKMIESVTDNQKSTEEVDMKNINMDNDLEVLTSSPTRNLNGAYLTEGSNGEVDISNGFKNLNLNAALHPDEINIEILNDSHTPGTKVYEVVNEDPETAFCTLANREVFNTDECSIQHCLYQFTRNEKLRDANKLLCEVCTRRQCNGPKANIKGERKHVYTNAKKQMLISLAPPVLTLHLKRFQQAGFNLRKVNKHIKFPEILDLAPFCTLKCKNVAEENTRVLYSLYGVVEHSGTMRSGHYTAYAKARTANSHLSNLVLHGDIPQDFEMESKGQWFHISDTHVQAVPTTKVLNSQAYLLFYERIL
EXPERIMENTAL READOUT: pIC50
The meaning of pIC50 here: minus log10 of the concentration in molar units.

IN: Report the value of pIC50 obtained on USP 16 (h) (Homo sapiens) for NC(=O)CI [Iodoacetamide, reference compound] .
OUT: 5.46

----------
- ASSAY TARGET: SETD2(h) (Homo sapiens, UniProt Q9BYW2)
- ASSAY: Epigenetic enzyme assay, Methyltransferases (MTs)
- Assay type: biochemical
- EXPERIMENTAL SETUP: read-out: Reference IC50
EXPERIMENTAL READOUT: IC50 (µM)
Numbers only here, please. The scale is µM.

IN: Look up and state reported IC50 for Nc1ncnc2c1ncn2[C@@H]1O[C@H](CSCC[C@H](N)C(=O)O)[C@@H](O)[C@H]1O
OUT: 1.2

----------
- ASSAY TARGET: JARID1A (h) (Homo sapiens, UniProt P29375)
- Sequence (P29375 whole entry): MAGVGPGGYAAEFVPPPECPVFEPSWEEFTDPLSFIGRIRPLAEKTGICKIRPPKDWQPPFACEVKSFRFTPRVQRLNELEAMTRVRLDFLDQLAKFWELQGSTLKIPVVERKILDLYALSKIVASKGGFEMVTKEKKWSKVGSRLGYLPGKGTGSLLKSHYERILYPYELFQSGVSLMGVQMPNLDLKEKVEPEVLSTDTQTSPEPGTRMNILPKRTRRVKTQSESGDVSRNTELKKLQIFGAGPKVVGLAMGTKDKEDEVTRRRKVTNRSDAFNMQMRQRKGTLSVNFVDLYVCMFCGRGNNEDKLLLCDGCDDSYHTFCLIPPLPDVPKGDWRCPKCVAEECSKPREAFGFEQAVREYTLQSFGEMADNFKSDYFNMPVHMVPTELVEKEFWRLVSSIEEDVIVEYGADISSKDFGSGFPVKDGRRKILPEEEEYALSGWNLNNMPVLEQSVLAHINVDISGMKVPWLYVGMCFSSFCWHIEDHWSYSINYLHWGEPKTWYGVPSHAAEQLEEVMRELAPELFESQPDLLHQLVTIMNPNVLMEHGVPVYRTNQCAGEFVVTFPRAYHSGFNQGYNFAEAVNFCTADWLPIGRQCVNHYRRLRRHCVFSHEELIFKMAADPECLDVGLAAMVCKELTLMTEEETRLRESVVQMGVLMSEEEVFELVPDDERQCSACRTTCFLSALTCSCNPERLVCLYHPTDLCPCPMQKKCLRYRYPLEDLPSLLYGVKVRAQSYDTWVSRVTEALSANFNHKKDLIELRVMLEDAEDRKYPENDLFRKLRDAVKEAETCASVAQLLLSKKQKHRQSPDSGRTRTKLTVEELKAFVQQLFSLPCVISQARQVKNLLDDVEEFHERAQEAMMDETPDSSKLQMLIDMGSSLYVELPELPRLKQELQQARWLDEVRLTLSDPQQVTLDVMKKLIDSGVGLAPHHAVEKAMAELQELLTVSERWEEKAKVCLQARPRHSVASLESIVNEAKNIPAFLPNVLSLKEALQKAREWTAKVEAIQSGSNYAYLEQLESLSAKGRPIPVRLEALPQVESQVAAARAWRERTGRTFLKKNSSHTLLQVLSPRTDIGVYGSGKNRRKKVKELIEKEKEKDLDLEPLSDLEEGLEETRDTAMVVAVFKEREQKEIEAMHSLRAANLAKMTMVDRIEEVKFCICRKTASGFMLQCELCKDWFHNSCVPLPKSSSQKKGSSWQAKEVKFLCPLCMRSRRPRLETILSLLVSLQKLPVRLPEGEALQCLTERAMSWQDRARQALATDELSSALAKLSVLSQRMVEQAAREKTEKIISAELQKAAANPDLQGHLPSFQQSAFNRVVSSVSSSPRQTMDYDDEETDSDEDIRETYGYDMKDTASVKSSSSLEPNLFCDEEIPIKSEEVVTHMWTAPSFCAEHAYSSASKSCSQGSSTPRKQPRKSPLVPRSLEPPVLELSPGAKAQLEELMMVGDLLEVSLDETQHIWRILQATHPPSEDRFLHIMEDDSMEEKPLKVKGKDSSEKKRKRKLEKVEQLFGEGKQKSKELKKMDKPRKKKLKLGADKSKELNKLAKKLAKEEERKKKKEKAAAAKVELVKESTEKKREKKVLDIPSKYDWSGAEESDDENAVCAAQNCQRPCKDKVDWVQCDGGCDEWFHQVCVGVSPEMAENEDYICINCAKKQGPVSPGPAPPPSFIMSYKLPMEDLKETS
- ASSAY: Epigenetic enzyme assay, Demethylases (KDMs)
- Format: biochemical
- EXPERIMENTAL SETUP: read-out: Reference IC50
EXPERIMENTAL READOUT: IC50
Write the figure, then the unit, nothing else.

IN: Please report the measured IC50 for O=C(O)c1ccnc(C(=O)O)c1 [2,4 PDCA, reference compound]
OUT: 180 nM

----------
- System: 280 human cancer cell lines
- ASSAY: OncoPanel cell proliferation assay (10-day)
- Format: cell-based
- EXPERIMENTAL SETUP: Homo sapiens, MC116, MC116, Lymphoma; read-out: Cell Count IC50
Documented IC50 across a set of molecules
Respond numerically; units are µM and should not be typed.

CC(C)=CCC[C@@H]1C(O)Oc2c(C)cc(O)c3c2[C@H]1CC[C@H]3C (stereo partly drawn)
13.8

IN: Read the entry CC(C)=CCC[C@H](CO)[C@@H]1CC[C@@H](C)c2c1cc(C)c(O)c2O [Compound 1, 7,8,18-trihydroxyserrulat-14-ene] and write its reported IC50.
OUT: 3.79

IN: Return reported IC50. Input molecule: CC(C)=CCC[C@H](C)[C@@H]1CC[C@@H](C)c2c1cc(C)c(O)c2O [Compound 4, 7,8-dihydroxyserrulat-14-ene]
OUT: 12.5

----------
Each record here notes measured pEC50.
- Test system: 280 human cancer cell lines
- ASSAY: OncoPanel cell proliferation assay (10-day)
- Type: cell-based
- EXPERIMENTAL SETUP: Homo sapiens, SK-UT-1, SK-UT-1, Soft Tissue - Sarcoma; read-out: Cell Count EC50
pEC50 here is simply -log10 of the concentration when that concentration is written in mol/L.

Example entries and their recorded answers appear below.
CC(C)=CCC[C@@H]1C(O)Oc2c(C)cc(O)c3c2[C@H]1CC[C@H]3C (stereo partly drawn) [Compound 2, 5,18-epoxyserrulat-14-en-8,18-diol]
4.93
CC(C)=CCC[C@H](CO)[C@@H]1CC[C@@H](C)c2c1cc(C)c(O)c2O [Compound 1, 7,8,18-trihydroxyserrulat-14-ene]
5.65

IN: Look up 280 human cancer cell lines data: pEC50 of CC(C)=CCC[C@H](C)[C@@H]1CC[C@@H](C)c2c1cc(C)c(O)c2O [Compound 4, 7,8-dihydroxyserrulat-14-ene] , then report it.
OUT: 5.26

----------
- Test system: 280 human cancer cell lines
- ASSAY: OncoPanel cell proliferation assay (10-day)
- Type: cell-based
- EXPERIMENTAL SETUP: Homo sapiens, HuP-T4, HuP-T4, Pancreas; read-out: Cell Count IC50
pIC50 listing for selected molecules.
Quick note: pIC50 means taking -log10 of the concentration in moles per liter.

CC(C)=CCC[C@H](C)[C@@H]1CC[C@@H](C)c2c1cc(C)c(O)c2O [Compound 4, 7,8-dihydroxyserrulat-14-ene]
4.86

Attention now shifts to the item below.
IN: Quote pIC50 reported for CC(C)=CCC[C@H](CO)[C@@H]1CC[C@@H](C)c2c1cc(C)c(O)c2O [Compound 1, 7,8,18-trihydroxyserrulat-14-ene] please.
OUT: 5.34

----------
- ASSAY TARGET: FBXL10 (h) (Homo sapiens)
- Sequence (Q8NHM5 1-1336): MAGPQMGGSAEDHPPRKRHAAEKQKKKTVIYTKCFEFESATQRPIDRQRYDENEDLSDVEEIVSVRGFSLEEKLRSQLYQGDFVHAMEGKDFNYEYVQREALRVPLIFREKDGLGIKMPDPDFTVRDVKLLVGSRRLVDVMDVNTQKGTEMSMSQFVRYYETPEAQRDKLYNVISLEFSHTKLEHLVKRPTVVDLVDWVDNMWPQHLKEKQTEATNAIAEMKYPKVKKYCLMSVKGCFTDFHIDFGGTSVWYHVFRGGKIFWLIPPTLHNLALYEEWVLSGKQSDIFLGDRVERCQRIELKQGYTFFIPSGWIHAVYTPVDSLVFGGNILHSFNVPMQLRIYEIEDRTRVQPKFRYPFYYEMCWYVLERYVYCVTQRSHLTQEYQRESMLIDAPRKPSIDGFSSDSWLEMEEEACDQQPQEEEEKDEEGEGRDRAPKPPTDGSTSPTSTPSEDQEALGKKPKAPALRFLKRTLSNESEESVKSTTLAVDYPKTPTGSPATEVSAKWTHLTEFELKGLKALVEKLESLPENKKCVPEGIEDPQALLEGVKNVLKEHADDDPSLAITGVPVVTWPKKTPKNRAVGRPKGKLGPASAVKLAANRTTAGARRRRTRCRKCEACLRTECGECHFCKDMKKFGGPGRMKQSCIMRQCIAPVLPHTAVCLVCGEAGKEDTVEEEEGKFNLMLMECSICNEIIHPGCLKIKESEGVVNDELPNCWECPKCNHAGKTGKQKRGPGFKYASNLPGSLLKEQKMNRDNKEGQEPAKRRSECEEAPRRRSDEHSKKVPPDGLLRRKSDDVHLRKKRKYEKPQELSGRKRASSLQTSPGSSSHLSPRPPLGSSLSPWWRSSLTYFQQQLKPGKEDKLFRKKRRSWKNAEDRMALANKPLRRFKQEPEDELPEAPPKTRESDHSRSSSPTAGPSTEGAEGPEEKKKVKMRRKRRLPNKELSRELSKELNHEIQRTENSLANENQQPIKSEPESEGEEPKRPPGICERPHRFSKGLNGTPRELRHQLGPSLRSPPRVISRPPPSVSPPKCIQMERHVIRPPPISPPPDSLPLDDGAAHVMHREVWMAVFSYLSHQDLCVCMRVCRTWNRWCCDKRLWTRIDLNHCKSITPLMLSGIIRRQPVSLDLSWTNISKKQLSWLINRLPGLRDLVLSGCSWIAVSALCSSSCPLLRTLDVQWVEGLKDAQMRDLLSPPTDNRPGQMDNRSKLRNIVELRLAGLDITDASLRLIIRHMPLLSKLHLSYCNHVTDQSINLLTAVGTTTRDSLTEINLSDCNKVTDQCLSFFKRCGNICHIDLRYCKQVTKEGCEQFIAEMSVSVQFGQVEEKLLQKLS
- ASSAY: Epigenetic enzyme assay, Demethylases (KDMs)
- Format: biochemical
- EXPERIMENTAL SETUP: read-out: Reference IC50
EXPERIMENTAL READOUT: pIC50
Schema: pIC50 number; meaning minus log10 of the concentration expressed in molar units.

IN: Find the measured pIC50 of O=C(O)c1ccnc(C(=O)O)c1 [2,4 PDCA, reference compound] with FBXL10 (h) (Homo sapiens) as test system.
OUT: 6.21
